test system: sheep monoclonal anti-25OHD antibody (Bioventix); experiment: Cross-reactivity of vitamin D metabolites in the optimized 25OHD competitive ELISA; type: binding; conditions: optimized 25OHD ELISA; metabolite serially diluted in Tris buffer
Exercise: for every item that follows, state its recorded ED50.
Answers are plain numbers, in µg/mL.

# batch size: 4; output ED50 per entry
1. C=C1CC[C@@H](O)C/C1=C/C=C1\CCC[C@]2(C)[C@@H]([C@H](C)CCCC(C)(C)O)CC[C@@H]12 [3-epi-25(OH)VitaminD3]
2. C=C1CC[C@H](O)C/C1=C/C=C1\CCC[C@]2(C)[C@@H]([C@H](C)/C=C/[C@H](C)C(C)C)CC[C@@H]12 [Vitamin D2]
3. C=C1CCC(O)C/C1=C\C=C1\CCCC2(C)C1CCC2C(C)CCC(O)C(C)(C)O (stereo not drawn)
4. C=C1/C(=C\C=C2/CCC[C@]3(C)[C@@H]([C@H](C)/C=C/[C@H](C)C(C)C)CC[C@@H]23)C[C@@H](O)C[C@@H]1O

Solution:
1: 0.00344; 2: 1.643; 3: 0.14; 4: 1.43

# batch size: 2; output ED50 per entry
1. C=C1CC[C@H](O)C/C1=C/C=C1\CCC[C@]2(C)[C@@H]([C@H](C)CCCC(C)C)CC[C@@H]12
2. C=C1CC[C@H](O)C/C1=C/C=C1\CCC[C@]2(C)[C@@H]([C@H](C)/C=C/[C@H](C)C(C)(C)O)CC[C@@H]12

Solution:
1: 23.5; 2: 0.00199

----------
Exercise: for every item that follows, state its recorded ED50.
test system: sheep monoclonal anti-25OHD antibody (Bioventix); assay: Cross-reactivity of vitamin D metabolites in the optimized 25OHD competitive ELISA; type: binding; conditions: optimized 25OHD ELISA; metabolite serially diluted in Tris buffer
Numbers only, in ng/mL.

molecular.string	unit.label	result.number
C=C1CC[C@H](O)C/C1=C/C=C1\CCC[C@]2(C)[C@@H]([C@H](C)CCCC(C)(C)O)CC[C@@H]12	ng/mL	1.75
C=C1/C(=C\C=C2/CCC[C@]3(C)[C@@H]([C@H](C)/C=C/[C@H](C)C(C)(C)O)CC[C@@H]23)C[C@@H](O)C[C@@H]1O	ng/mL	1.86
C=C1/C(=C\C=C2/CCC[C@]3(C)[C@@H]([C@H](C)CCCC(C)(C)O)CC[C@@H]23)C[C@@H](O)C[C@@H]1O	ng/mL	6.27

Problem: Fill in the recorded ED50 for this compound, with sheep monoclonal anti-25OHD antibody (Bioventix) as test system: `C=C1/C(=C\C=C2/CCC[C@]3(C)[C@@H]([C@H](C)CCCC(C)C)CC[C@@H]23)C[C@@H](O)C[C@@H]1O`
Solution: 4030

Data origin, for the record: patent US10197581B2
